Provide the reported IC50 of each item.
- ASSAYED_TARGET: androgen receptor LBD (Panvera) (Rattus norvegicus, UniProt P15207)
- Construct: 5 pmol androgen receptor LBD (Panvera); purchased Panvera
- PROTOCOL_SUMMARY: Androgen Receptor Filtration Binding Assay (PANVERA)
- MEASUREMENT_PARAMETERS: Androgen Receptor Binding (Panvera); 0.5 nM [3H] R1881 tracer
- Procedure: The assay was run on a 96 well plate with each well filled with a total reaction volume 150 μL, of a solution containing 5 pmol androgen receptor LBD (Panvera) or 30 μL of freshly prepared rat cytosol, 0.5 nM [^3H] […] On day two, to each well was then added 20 μL human γ-globulin (ICN 823102), prepared at 25 mg/ml in TE pH 8.0, and 55 μL 40% polyethylene glycol 8000 (JT Baker U222-08), prepared in TE pH 8.0. […] The plate wells were then counted on a TopCount (Packard). […]

Solved cases (3 shown):
1) CC(O)(c1cc2cc(C#N)c(C(F)(F)F)cc2[nH]1)S(=O)(=O)c1ccc(Cl)cc1 (racemic) [compound 262] = > 10 µM
2) OC1(c2cc3cc(Cl)c(C(F)(F)F)cc3[nH]2)CCN(Cc2ccccc2)CC1 [Compound #22] = > 9.6 µM
3) CS(=O)(=O)n1c(C2(O)CCN(Cc3ccccc3)CC2)cc2cc(Cl)c(C(F)(F)F)cc21 [Compound #21] = > 10.2 µM

Now for a further molecule.
### Prompt Can you look up the measured IC50 of CS(=O)(=O)n1c(C2(O)CCN(C(=O)OCc3ccccc3)CC2)cc2cc(Cl)c(C(F)(F)F)cc21 [compound 19] for me?
### Response > 100 µM

###

- ASSAYED_TARGET: androgen receptor (rat ventral prostate cytosol) (Rattus norvegicus, UniProt P15207)
- Construct: from tissue; host or cells: ventral prostate of castrated male Sprague Dawley or Wistar rats, cytosol
- Sequence (P15207 1-902): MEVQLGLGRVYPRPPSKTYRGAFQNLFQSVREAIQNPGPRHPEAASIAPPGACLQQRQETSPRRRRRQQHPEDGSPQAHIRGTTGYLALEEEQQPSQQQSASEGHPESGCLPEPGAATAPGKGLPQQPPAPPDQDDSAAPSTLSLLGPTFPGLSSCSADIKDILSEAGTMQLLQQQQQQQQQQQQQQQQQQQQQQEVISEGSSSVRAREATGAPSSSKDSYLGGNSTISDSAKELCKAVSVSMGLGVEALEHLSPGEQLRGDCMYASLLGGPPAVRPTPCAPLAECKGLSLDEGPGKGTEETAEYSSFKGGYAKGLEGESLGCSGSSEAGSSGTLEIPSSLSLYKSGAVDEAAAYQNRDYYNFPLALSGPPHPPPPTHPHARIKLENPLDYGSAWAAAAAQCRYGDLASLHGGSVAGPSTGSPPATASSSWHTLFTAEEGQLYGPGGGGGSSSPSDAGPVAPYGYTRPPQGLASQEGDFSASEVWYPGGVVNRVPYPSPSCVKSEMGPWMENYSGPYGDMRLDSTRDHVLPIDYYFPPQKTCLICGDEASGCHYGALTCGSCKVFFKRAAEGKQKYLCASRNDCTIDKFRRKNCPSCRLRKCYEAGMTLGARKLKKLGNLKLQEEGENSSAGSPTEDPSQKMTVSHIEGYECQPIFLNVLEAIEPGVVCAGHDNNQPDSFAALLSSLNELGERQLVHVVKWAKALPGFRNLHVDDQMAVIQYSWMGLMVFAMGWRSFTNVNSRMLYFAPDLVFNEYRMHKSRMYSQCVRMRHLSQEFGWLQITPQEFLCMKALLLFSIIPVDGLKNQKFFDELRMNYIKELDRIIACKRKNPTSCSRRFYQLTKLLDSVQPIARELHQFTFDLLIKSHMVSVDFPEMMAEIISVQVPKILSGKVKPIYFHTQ
- PROTOCOL_SUMMARY: Androgen Receptor Binding Using Rat Ventral Prostate Cytosol
- MEASUREMENT_PARAMETERS: rat cytosol; concentration 3000 nM
Rule for this label: Yes means % Inhibition is less than 40%; No means % Inhibition is at least 40%.

1. CC(C)CSCC(C)(O)c1cc2cc([N+](=O)[O-])c(C(F)(F)F)cc2[nH]1 (racemic) = No
2. CC(C)SC(C)(CO)c1cc2cc([N+](=O)[O-])c(C(F)(F)F)cc2[nH]1 (racemic) = Yes
3. COc1ccc(SCC(C)(O)c2cc3cc(Cl)c(C(F)(F)F)cc3n2S(C)(=O)=O)cc1 (racemic) = Yes

We next turn to a different compound, shown below.
### Prompt Input CC(O)(CS(=O)(=O)Cc1ccccc1)c1cc2cc([N+](=O)[O-])c(C(F)(F)F)cc2[nH]1 (racemic) ; condition: % Inhibition strictly below 40%. Does it hold?
### Response Yes
